target-or-test-system: zebrafish Thyroid Hormone Receptor beta (TRb), thrb (gene 30607)
method-description: ATG_zfTRb_XSP2: Attagene TRANS-FACTORIAL Multi-Species (XSP1) HepG2 Assay for zebrafish Thyroid Hormone Receptor beta (TRb) (AID 2283836)
Records with an inconclusive call do not appear. The source made the active and inactive calls. Rule for the calls: active = hit-call score of the fitted dose curve at least 0.9, where 1 is the maximum; inconclusive = response in the unintended direction; inactive = score below 0.9.
property-measured: outcome

1) Clc1ccc(C2(Cn3cncn3)CC(Br)CO2)c(Cl)c1 (configuration not stated) ... inactive
2) COP(=O)(OC)O/C(=C\Cl)c1cc(Cl)c(Cl)cc1Cl ... inactive
3) Oc1ccc(-c2ccccc2)cc1 ... inactive
4) CC12CC1(C)C(=O)N(c1cc(Cl)cc(Cl)c1)C2=O (configuration not stated) ... inactive
5) CC(C)(C)c1cc(O)ccc1O ... inactive
6) CC(=O)C=C(C)C ... inactive

Now examine the next entry.
Quick one: outcome of `C[C@]12CC[C@H](O)CC1=CC[C@@H]1[C@@H]2CC[C@]2(C)C(=O)CC[C@@H]12` ? inactive

* * *

target-or-test-system: human Thromboxane A2 Receptor (TXA2), TBXA2R (gene 6915) (UniProt P21731)
Sequence (P21731 whole entry, looked up): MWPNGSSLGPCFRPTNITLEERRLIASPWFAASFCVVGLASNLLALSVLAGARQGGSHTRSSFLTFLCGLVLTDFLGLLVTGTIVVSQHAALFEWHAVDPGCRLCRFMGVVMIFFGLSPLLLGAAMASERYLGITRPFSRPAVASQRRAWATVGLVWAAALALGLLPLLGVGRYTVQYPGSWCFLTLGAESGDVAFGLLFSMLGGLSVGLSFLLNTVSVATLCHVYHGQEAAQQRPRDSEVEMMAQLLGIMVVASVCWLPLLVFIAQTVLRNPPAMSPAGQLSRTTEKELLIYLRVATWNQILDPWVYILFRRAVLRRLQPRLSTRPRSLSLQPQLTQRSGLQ
method-description: NVS_GPCR_hTXA2: NovaScreen (NVS) G Protein-Coupled Receptor Assay for human Thromboxane A2 Receptor (TXA2) (AID 2283282);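 note: actives reduce bound radioligand signal relative to DMSO baseline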
Protocol: NVS_GPCR_hTXA2 is a biochemical, single-readout assay that uses extracted gene-proteins from Human platelets in a cell-free assay. Measurements were taken 1 hour after chemical dosing in a 96-well plate.NVS_GPCR_hTXA2 is one of one assay component(s) measured or calculated from the NVS_GPCR_hTXA2 assay. […] This assay endpoint, NVS_GPCR_hTXA2, was analyzed in the positive analysis fitting direction relative to DMSO as the negative control and baseline of activity. […]
Inconclusive results are not listed. The source made the active and inactive calls. How the source made its calls: active means hit-call score of the fitted dose curve at least 0.9, where 1 is the maximum; inconclusive means response in the unintended direction; inactive means score below 0.9.
Mark one answer only. Choices: active, inactive

Please share the test call associated with `CC(=O)[O][Hg][c]1ccccc1` . active

Would you mind doing `CC(C)(C)CC(C)(C)c1ccc(O)cc1` as well? active

Also `CCCCCCCCC(=O)NCc1ccc(O)c(OC)c1` , if possible. inactive

* * *

Read-out: NAD(P)H dehydrogenase [quinone] 1 (NQO1), NQO1 (gene 1728)
method-description: LTEA_HepaRG_NQO1: Life Technologies and Expression Analysis (LTEA) Assay for NAD(P)H dehydrogenase [quinone] 1 (NQO1) using HepaRG (AID 2283526)
applied-conditions: mRNA level, 48 h; actives raise or lower the signal
Calls of active or inactive are those of the source. How the source made its calls: active means hit-call score of the fitted dose curve at least 0.9, where 1 is the maximum; inactive means score below 0.9.
Choose one outcome from this list and give only that: active, inactive

Kindly provide the recorded test outcome for the following compound: `O=C(Nc1ccc2[nH]ccc2c1)c1cc2cc(F)ccc2n1Cc1cccc(F)c1` inactive

Also, `CC(=O)[O][Hg][c]1ccccc1` please. active

Do the same for `O=C(O)C(Cl)(Cl)Cl` please inactive

Moving on to the next compound: `CC(C)(OO)c1ccccc1` inactive

Subsequent entry: `COc1cc(-c2ccc(N)c(OC)c2)ccc1N` inactive

Consider next the compound `O=C(O)C(F)(F)C(F)(F)C(F)(F)C(F)(F)C(F)(F)C(F)(F)C(F)(F)C(F)(F)C(F)(F)C(F)(F)F` in the same way. inactive

Next compound: `O=C(O)C(F)(F)C(F)(F)C(F)(F)C(F)(F)C(F)(F)C(F)(F)F` inactive

Then this compound: `CCN1CCC2(CC1)COc1cc3c(cc12)N(C(=O)c1ccc(-c2ccc(-c4nnc(C)o4)cc2C)cc1)CC3` inactive

Here is the next compound: `CCOP(=S)(OCC)SCSP(=S)(OCC)OCC` inactive

What do you get for `CC(C)(c1ccccc1)c1ccc(O)c(C(C)(C)c2ccccc2)c1` ? inactive

Repeat for the following compound: `C=C(C)C(=O)[O][Sn]([CH2]CCC)([CH2]CCC)[CH2]CCC` active

* * *

Read-out: solute carrier (SLC22A1), SLC22A1 (gene 6580)
method-description: LTEA_HepaRG_SLC22A1: Life Technologies and Expression Analysis (LTEA) Assay for solute carrier (SLC22A1) using HepaRG (AID 2283524)
applied-conditions: mRNA level, 48 h; actives raise or lower the signal
Active and inactive are the calls of the source. Rule for the calls: active = hit-call score of the fitted dose curve at least 0.9, where 1 is the maximum; inactive = score below 0.9.
Use one of these outcomes when replying: True = active, False = inactive

Field: outcome | Entry: `C=C(C)C(=O)[O][Sn]([CH2]CCC)([CH2]CCC)[CH2]CCC` True

Here is the next molecule: `C[C@]12CCC(=O)C[C@@H]1CC[C@@H]1[C@@H]2CC[C@]2(C)[C@@H](O)CC[C@@H]12` False

How about `CCC(C)(C)c1ccc(O)c(C(C)(C)CC)c1` ? False

Record: `Cn1sc(Cl)cc1=O` False

Can you check `CCOP(=S)(OCC)SCSP(=S)(OCC)OCC` next? False

Similarly, `CC(C)(c1ccccc1)c1ccc(O)c(C(C)(C)c2ccccc2)c1` ? True

* * *

method-description: CCTE_Shafer_MEA_dev_LDH: CCTE's Lactate Dehydrogenase Assay for Cytotoxicity in the Neural Network Formation Assay, Shafer Lab (AID 2284068);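 note: exposure for twelve days from plating with re-dosing on DIV 5 and 9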
Results filed as inconclusive are left out. The source made the active and inactive calls. Rule for the calls: active = hit-call score of the fitted dose curve at least 0.9, where 1 is the maximum; inconclusive = response in the unintended direction; inactive = score below 0.9.
Please answer using one outcome listed in active, inactive

How was `Cn1sc(Cl)cc1=O` classified in this test? active

What about this compound? `O=C(O)C(F)(F)C(F)(F)C(F)(F)C(F)(F)C(F)(F)C(F)(F)C(F)(F)C(F)(F)C(F)(F)C(F)(F)F` inactive

What about this compound? `CC(=O)[O][Hg][c]1ccccc1` active

Try the compound `CC(C)(C)c1cc(O)ccc1O` active

Can you check ClC1(Cl)C2(Cl)C3(Cl)C4(Cl)C(Cl)(Cl)C5(Cl)C3(Cl)C1(Cl)C5(Cl)C24Cl (stereo not given) next? active

* * *

method-description: ATG_TCF_b_cat_CIS: Attagene CIS-FACTORIAL HepG2 Assay for human T-Cell-Factor with beta-catenin (TCF/b-cat) (AID 2282965)
applied-conditions: HepG2 TCF/beta-catenin cis-reporter transcription, actives raise or lower the signal
Calls of active or inactive are those of the source. The calls were made as follows: active = hit-call score of the fitted dose curve at least 0.9, where 1 is the maximum; inactive = score below 0.9.
Lab note: assign the record to one of active, inactive

What outcome does the record of this test show for `Oc1c(I)cc(I)cc1I` ? active

Now consider CCC1(c2ccc(N)cc2)CCC(=O)NC1=O (centres undefined) and answer again. inactive

And `Nc1ccc(-c2ccc(N)c(Cl)c2)cc1Cl` ? active

# repeat for `COc1cc2c(cc1OC)[C@@]13CCN4CC5=CCO[C@H]6CC(=O)N2[C@H]1[C@H]6[C@H]5C[C@H]43` inactive

// repeat for `CCC[CH2][Sn]([Cl])([Cl])[Cl]` and report inactive

// next record CCCCC(CC)CO[N+](=O)[O-] (centres undefined) inactive

Same question for `ClCc1ccccn1` please. inactive

Try this compound too: `CCCCP(CCCC)CCCC` inactive

For `CCN1CCC2(CC1)COc1cc3c(cc12)N(C(=O)c1ccc(-c2ccc(-c4nnc(C)o4)cc2C)cc1)CC3` then? active

Further, for `CN(C)P(=O)(N(C)C)N(C)C` ? inactive

Same question, CC(=O)C(Cl)C(=O)N(C)C (centres undefined) this time inactive

Next: `CC(C)c1cccc(C(C)C)c1O` inactive

Similarly, `O=C(NCO)NCO` ? inactive

Further, for CC(C#N)CCC#N (centres undefined) ? inactive

* * *

Read-out: ABC Transporter (ABCC3), ABCC3 (gene 8714)
method-description: LTEA_HepaRG_ABCC3: Life Technologies and Expression Analysis (LTEA) Assay for ABC Transporter (ABCC3) using HepaRG (AID 2283462)
applied-conditions: mRNA level, 48 h; actives raise or lower the signal
Description: LTEA_HepaRG is a cell based, multiplexed-readout assay that uses HepaRG, a human liver cell line, with measurements taken at 48 hours after chemical dosing on a 96-well plate.LTEA_HepaRG_ABCC3 is one of 102 assay component(s) measured in the LTEA HepaRG cell culture assay. It is a marker of NR mediated transport.Data from the assay component LTEA_HepaRG_ABCC3 was analyzed into 1 endpoint. […]
The source made the active and inactive calls. How the source made its calls: active means hit-call score of the fitted dose curve at least 0.9, where 1 is the maximum; inactive means score below 0.9.
Please reply with one of these outcomes: active, inactive

Field: outcome | Entry: `C[C@@H]1C[C@@H]([C@H](O)CC2CC(=O)NC(=O)C2)C(=O)[C@@H](C)C1` active

Note, next up: `O=c1[nH]c(=O)[nH]c(=O)[nH]1` inactive

Next: `CCCCCCCCc1ccc(O)cc1` inactive

For `C=C(C)C(=O)[O][Sn]([CH2]CCC)([CH2]CCC)[CH2]CCC` then? active

Then `CCN1CCC2(CC1)COc1cc3c(cc12)N(C(=O)c1ccc(-c2ccc(-c4nnc(C)o4)cc2C)cc1)CC3` ? active

Can you handle `Oc1cccc2cccnc12` next? inactive

Can you check `CCOP(=S)(OCC)SCSP(=S)(OCC)OCC` next? inactive

Record: ClC1(Cl)C2(Cl)C3(Cl)C4(Cl)C(Cl)(Cl)C5(Cl)C3(Cl)C1(Cl)C5(Cl)C24Cl (stereo unspecified) inactive

Further, for `C[C@]12CCC(=O)C[C@@H]1CC[C@@H]1[C@@H]2CC[C@]2(C)[C@@H](O)CC[C@@H]12` ? inactive

What do you have for `O=C(Nc1ccc2[nH]ccc2c1)c1cc2cc(F)ccc2n1Cc1cccc(F)c1` ? inactive

// next record `CC(C)(OO)c1ccccc1` inactive
